Just for reference, patent US9309222B2 is where these values come from.

- study_target: human RORγt LBD (Homo sapiens, UniProt P51449)
- assay_explanation: RORγt reporter assay (GAL4-RORγt LBD luciferase in HEK293T cells)
- settings: HEK293T cells, 24 hours compound treatment
readout_kind: IC50 (µM)
// note: answer is a bare numeric in µM

Would you kindly share the measured IC50 for Cc1nn(C)c(C)c1C(O)(c1ccccc1)c1ccc2nc(Cl)c(-c3ccccc3)c(Cl)c2c1 (stereo not shown) [Example 4] ? 3.2

Would you kindly share the measured IC50 for CC(=O)N1CCC(C(O)(c2cccnc2)c2ccc3nc(Cl)c(-c4ccccc4)c(Cl)c3c2)CC1 (stereo not shown) [Example 95] ? 0.5

Would you kindly share the measured IC50 for N#Cc1nc2ccc(C(O)(c3ccc(C(F)(F)F)nc3)c3cccc(Cl)c3)cc2c(C#N)c1-c1ccccc1 (stereo not shown) [Example 114] ? 0.74

Would you kindly share the measured IC50 for COc1nc2ccc(C(O)(c3cccnc3)c3cccc(Cl)c3)cc2c(OC)c1-c1ccccc1 (stereo not shown) [Example 79] ? 1.2

Would you kindly share the measured IC50 for CC(C)(C)OC(=O)N1CCCC(C(O)(c2cccnc2)c2ccc3nc(Cl)c(-c4ccccc4)c(Cl)c3c2)C1 (stereo not shown) [Example 5] ? 0.38

Would you kindly share the measured IC50 for CCN(CC)c1nc2ccc(C(O)(c3ccncc3)c3cncn3C)cc2c(OC)c1-c1ccccc1 (stereo not shown) [Example 105] ? 0.15

Would you kindly share the measured IC50 for COc1nc2c(C)cc(C(O)(c3ccc(C(F)(F)F)nc3)c3cncn3C)cc2c(C#N)c1-c1cccc(F)c1 (single isomer, unassigned) [Example 179b] ? 1.3

----------
- study_target: human RORγt LBD (Homo sapiens, UniProt P51449)
- Construct: expressed in transfected cells
- assay_explanation: RORγt reporter assay (GAL4-RORγt LBD luciferase in HEK293T cells)
- Format: cell-based
- settings: HEK-293T, read-out: RORγt reporter Assay, % inhibition @ 6 μM, HEK293T cells, 6 μM compound
Quick rule: inhibition at 6 µM of at least 80% means rule met, below that means rule not met.

Decide: inhibition at 6 µM of CCCCc1c(-c2ccccc2)cnc2ccc(C(O)(c3ccncc3)c3cncn3C)cc12 (centres unmarked) >= 80%? rule not met

Decide: inhibition at 6 µM of CC(=O)N1CCC(C(O)(c2ccc3nc(C(F)(F)F)c(-c4ccccc4)c(C(F)(F)F)c3c2)c2cncn2C)CC1 (racemic) [Example 181a] >= 80%? rule met

Decide: inhibition at 6 µM of OC(c1cccnc1)(c1ccc2nc(Cl)c(-c3ccccc3)c(Cl)c2c1)C1CCCNC1 (centres unmarked) >= 80%? rule not met

Decide: inhibition at 6 µM of CN(C)c1c(-c2ccccc2)c(Cl)nc2ccc(C(O)(c3cccnc3)c3cccc(Cl)c3)cc12 (centres unmarked) >= 80%? rule met

Decide: inhibition at 6 µM of CCOc1nc2ccc(C(O)(c3ccncc3)c3cncn3C)cc2c(Cl)c1-c1ccccc1 (centres unmarked) >= 80%? rule met

Decide: inhibition at 6 µM of Cc1nn(C)c(C)c1C(O)(c1ccccc1)c1ccc2nc(Cl)c(-c3ccccc3Cl)c(Cl)c2c1 (centres unmarked) >= 80%? rule met

Decide: inhibition at 6 µM of CCOc1nc2ccc(C(O)(c3ccncc3)c3cncn3C)cc2c(OCC)c1-c1ccccc1 (centres unmarked) >= 80%? rule not met

Decide: inhibition at 6 µM of Cc1nc(C(O)(c2ccc3nc(Cl)c(-c4ccccc4)c(Cl)c3c2)c2cncn2C)cs1 (centres unmarked) >= 80%? rule met

----------
- study_target: human RORγt ligand binding domain (RORγt LBD) (Homo sapiens, UniProt P51449)
- Construct: His-tag (N); TurboTEV protease cleavage site (ENLYFQG) (N)
- Sequence (P51449 with tags, fused parts or gaps): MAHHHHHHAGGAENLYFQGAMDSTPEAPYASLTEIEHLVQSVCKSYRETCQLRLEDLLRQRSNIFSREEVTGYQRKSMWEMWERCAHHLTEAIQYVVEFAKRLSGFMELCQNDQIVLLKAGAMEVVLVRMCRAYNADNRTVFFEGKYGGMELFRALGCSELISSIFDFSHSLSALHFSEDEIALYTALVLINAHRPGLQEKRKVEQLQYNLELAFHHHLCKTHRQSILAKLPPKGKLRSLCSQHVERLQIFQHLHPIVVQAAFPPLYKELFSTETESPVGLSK
- assay_explanation: RORγt ThermoFluor assay (thermal shift, ligand binding affinity)
- settings: estimated from concentration response of thermal shift
pKd: −log10 of the molar value.
Quick rule: pKd of at least 6 means t, below that means f.

Decide: pKd of Cc1ccc(C(O)(c2cc[nH]c2)c2cc(C)c3nc(Cl)c(-c4ccccc4)c(Cl)c3c2)cn1 (stereo not drawn) >= 6? f

Decide: pKd of COCOc1ccc(C(O)(c2cccnc2)c2ccc3nc(Cl)c(-c4ccccc4)c(Cl)c3c2)cc1 (stereo not drawn) >= 6? t

Decide: pKd of CN(C)c1nc2ccc(C(O)(c3ccc(Cl)cc3)c3cccnc3)cc2c(Cl)c1-c1ccccc1 (stereo not drawn) >= 6? t

Decide: pKd of COc1ccc(C(O)(c2cccnc2)c2ccc3ncc(-c4ccccc4)c(Cl)c3c2)cc1 (stereo not drawn) >= 6? f

Decide: pKd of CCOc1nc2ccc(C(O)(c3ccncc3)c3cncn3C)cc2c(OCC)c1-c1ccccc1 (stereo not drawn) >= 6? t

Decide: pKd of CCN(CC)c1nc2ccc(C(O)(c3cccnc3)c3cccc(Cl)c3)cc2c(Cl)c1-c1ccccc1 (stereo not drawn) >= 6? t

Decide: pKd of COc1cccc(C(O)(c2ccc(C)nc2)c2ccc3nc(Cl)c(-c4ccccc4)c(Cl)c3c2)c1 (stereo not drawn) >= 6? t

Decide: pKd of COc1nc2c(C)cc(C(O)(c3ccc(C(F)(F)F)nc3)c3cncn3C)cc2c(C#N)c1-c1cccc(F)c1 (single isomer, unassigned) [Example 179c] >= 6? t

Decide: pKd of Cn1cncc1C(O)(c1ccc2nc(C(F)(F)F)c(-c3ccccc3)c(C#N)c2c1)c1ccccn1 (stereo not drawn) >= 6? t

Decide: pKd of CN(C)c1nc2ccc(C(O)(c3ccccn3)c3cncn3C)cc2c(Cl)c1-c1ccccc1 (stereo not drawn) >= 6? f

Decide: pKd of COc1cccc(C(O)(c2ccc(Cl)nc2)c2ccc3nc(Cl)c(-c4ccccc4)c(Cl)c3c2)c1 (stereo not drawn) >= 6? t

Decide: pKd of OC(c1ccccc1)(c1cccnc1)c1ccc2nc(Cl)c(-c3ccccc3Cl)c(Cl)c2c1 (stereo not drawn) >= 6? t

----------
- study_target: human RORγt LBD (Homo sapiens)
- Construct: expressed in transfected cells
- assay_explanation: RORγt reporter assay (GAL4-RORγt LBD luciferase in HEK293T cells)
- Assay type: cell-based
- settings: HEK293T cells, 6 μM compound; 6 µM
I'd be grateful if you could share measured RORγt reporter Assay, % inhibition @ 6 μM for these entries.
// note: answer is a bare numeric in %

Would you kindly share the measured RORγt reporter Assay, % inhibition @ 6 μM for CC(=O)N1CCC(C(O)(c2ccc3nc(C(F)(F)F)c(-c4ccccc4)c(C(F)(F)F)c3c2)c2cncn2C)CC1 (single isomer, unassigned) [Example 181c] ? 105

Would you kindly share the measured RORγt reporter Assay, % inhibition @ 6 μM for Cc1cc(C(O)(c2ccc(F)cc2)c2cncn2C)cc2c(C#N)c(-c3cccc(F)c3)c(C#N)nc12 (single isomer, unassigned) [Example 175c] ? 95

Would you kindly share the measured RORγt reporter Assay, % inhibition @ 6 μM for COc1nc2c(C)cc(C(O)(c3ccc(C(F)(F)F)nc3)c3cncn3C)cc2c(Cl)c1-c1ccc(OC(F)(F)F)cc1 (single isomer, unassigned) [Example 183c] ? 73

Would you kindly share the measured RORγt reporter Assay, % inhibition @ 6 μM for Cc1cc(C(O)(c2ccc(C(F)(F)F)nc2)c2cncn2C)cc2c(C#N)c(-c3cccc(F)c3)c(C#N)nc12 (single isomer, unassigned) [Example 176c] ? 95

Would you kindly share the measured RORγt reporter Assay, % inhibition @ 6 μM for CC(=O)N1CCC(C(O)(c2ccccc2)c2ccc3nc(C(F)(F)F)c(-c4ccccc4)c(C(F)(F)F)c3c2)CC1 (single isomer, unassigned) [Example 169c] ? 96

Would you kindly share the measured RORγt reporter Assay, % inhibition @ 6 μM for Cn1cncc1C(O)(c1ccc2nc(C(F)(F)F)c(-c3ccccc3)c(C(F)(F)F)c2c1)c1ccccn1 (single isomer, unassigned) [Example 185c] ? 91

Would you kindly share the measured RORγt reporter Assay, % inhibition @ 6 μM for Cn1cncc1C(O)(c1ccc(C(F)(F)F)nc1)c1ccc2nc(C(F)(F)F)c(-c3ccccc3)c(C#N)c2c1 (single isomer, unassigned) [Example 173c] ? 95

Would you kindly share the measured RORγt reporter Assay, % inhibition @ 6 μM for Cn1cncc1C(O)(c1ccc(Cl)cc1)c1ccc2nc(Cl)c(-c3ccccc3Cl)c(Cl)c2c1 (single isomer, unassigned) [Example 153c] ? 96

Would you kindly share the measured RORγt reporter Assay, % inhibition @ 6 μM for COc1nc2c(C)cc(C(O)(c3ccc(C(F)(F)F)nc3)c3cncn3C)cc2c(Cl)c1-c1ccc(OC(F)(F)F)cc1 (single isomer, unassigned) [Example 183b] ? 34

Would you kindly share the measured RORγt reporter Assay, % inhibition @ 6 μM for Cc1cc(C(O)(c2ccc(C(F)(F)F)nc2)c2cncn2C)cc2c(C#N)c(-c3ccc(F)cc3)c(C#N)nc12 (single isomer, unassigned) [Example 184c] ? 97

Would you kindly share the measured RORγt reporter Assay, % inhibition @ 6 μM for COc1nc2c(C)cc(C(O)(c3ccc(F)cc3)c3cncn3C)cc2c(Cl)c1-c1cccc(F)c1 (single isomer, unassigned) [Example 178c] ? 96

Would you kindly share the measured RORγt reporter Assay, % inhibition @ 6 μM for Cn1cncc1C(O)(c1ccc(Cl)cc1)c1ccc2nc(Cl)c(-c3ccccc3Cl)c(Cl)c2c1 (single isomer, unassigned) [Example 153b] ? 93

Would you kindly share the measured RORγt reporter Assay, % inhibition @ 6 μM for COc1nc2c(C)cc(C(O)(c3ccc(C(F)(F)F)nc3)c3cncn3C)cc2c(Cl)c1-c1cccc(F)c1 (single isomer, unassigned) [Example 177c] ? 98

Would you kindly share the measured RORγt reporter Assay, % inhibition @ 6 μM for COc1nc2c(C)cc(C(O)(c3ccc(F)cc3)c3cncn3C)cc2c(C#N)c1-c1cccc(F)c1 (single isomer, unassigned) [Example 180c] ? 99
